- target: human GCG receptor (human, UniProt P47871 26-477)
- Sequence (P47871 26-477): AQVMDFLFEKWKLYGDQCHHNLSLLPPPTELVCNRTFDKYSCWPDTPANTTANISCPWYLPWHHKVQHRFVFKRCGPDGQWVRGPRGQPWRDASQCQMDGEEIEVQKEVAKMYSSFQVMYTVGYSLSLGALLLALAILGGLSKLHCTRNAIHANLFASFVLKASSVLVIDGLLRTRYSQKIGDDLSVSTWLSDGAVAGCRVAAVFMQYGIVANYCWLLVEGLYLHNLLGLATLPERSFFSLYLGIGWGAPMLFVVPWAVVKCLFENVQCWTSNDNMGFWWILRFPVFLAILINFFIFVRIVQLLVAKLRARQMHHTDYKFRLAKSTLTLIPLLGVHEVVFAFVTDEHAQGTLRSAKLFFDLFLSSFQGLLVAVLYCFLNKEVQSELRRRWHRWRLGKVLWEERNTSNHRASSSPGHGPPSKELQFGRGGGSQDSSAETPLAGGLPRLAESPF
- testProtocol: cell-based or functional assay
Bridges are numbered along the chain shown (N, C = ends). Where no end group is shown, it is not given here. [ ]: non-standard residue; d: D form. Aib = CC(C)(N)C(=O)O
observable: In vitro activity relative to native peptide (%) vs. Glucagon
Give your result in % as a bare value.

Y[Aib]QGTFTSDCSKYLDERAAKDFVQWLLDHHPSSGQPPPS (bridge 16-20) [triple agonist of SEQ ID NO: 72]    1

Q) Quick one: In vitro activity relative to native peptide (%) vs. Glucagon of Y[Aib]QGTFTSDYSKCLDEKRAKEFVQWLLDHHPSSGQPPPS (bridge 16-20) [triple agonist of SEQ ID NO: 22] ?
A) 140

Q) Ok, now H[Aib]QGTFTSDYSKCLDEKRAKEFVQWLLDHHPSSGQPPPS (bridge 16-20) [triple agonist of SEQ ID NO: 65]
A) 25.2

Q) Also H[Aib]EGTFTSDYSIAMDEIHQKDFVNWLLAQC (bridge 16-20) [triple agonist of SEQ ID NO: 53] ?
A) 8.4
